Tested on: SN12C renal
assayOverview: NCI-60 one-dose screen, 48 h
protocolConditions: 10 µM unless noted
This is part of a sample that, as a whole, favours compounds with a hit. Of some 83,000 tested, about 20% had one in any assay. Calls of active or inactive are those of the source. The calls were made as follows: active = growth percent below 10; inactive = the rest.
Hi there, use one of these labels in your reply, thanks! active, inactive

Solved cases (5 shown):
CCOc1ccc(N2C(=O)CCSC2=S)cc1 | inactive
CC(=O)c1c(/C=C/c2ccc(C)cc2)c2ccccc2[nH]c1=O | inactive
CCOC(=O)CC1C(CNC(=O)NC)OC(n2cnc3c(NC(=O)Nc4ccccc4)ncnc32)C1O[Si](C)(C)C(C)(C)C (stereo not given) | inactive
O=C(CNc1ncco1)Nc1ccc(S(=O)(=O)c2ccc(NC(=O)CNc3ncco3)cc2)cc1 | active
COc1ccc(-c2cc(-c3ccc(Nc4nc(Nc5ccc(Cl)cc5)nc(Nc5ccc(Cl)cc5)n4)cc3)no2)cc1 | inactive

-- ask Assay result, entry CN1CCN(Cc2ccc(NC(=O)c3cncc(C#Cc4c(N)ncc5c(F)cccc45)c3)cc2C(F)(F)F)CC1 — outcome?
-- reply active

-- ask Assay result, entry CC1OC(C(=O)N2CCN(CCO)CC2)CC1COC1CCCCC1 (stereo not given) — outcome?
-- reply inactive

-- ask Assay result, entry COc1ccc2c(O)cc3c(c2c1)[C@H](CCl)CN3C(=O)c1cc2cc(NC(=O)CCN3CCOCC3)ccc2[se]1 — outcome?
-- reply active

-- ask Assay result, entry O=C(/C=C\c1ccc(O)c(O)c1)c1ccccc1O — outcome?
-- reply inactive

-- ask Assay result, entry C=CCn1c(SCC(=O)Nc2ccc(C(=O)/C=C/c3ccc(Cl)cc3)cc2)nnc1-c1ccccc1 — outcome?
-- reply inactive

-- ask Assay result, entry CCCCCCCCCCCCCCCCCCOc1ccccc1CC(=O)OCC[N+]1(C)CCCCC1 — outcome?
-- reply inactive

-- ask Assay result, entry Brc1ccc(-c2nn(-c3ccccc3)cc2-c2nn[nH]n2)s1 — outcome?
-- reply inactive

-- ask Assay result, entry O=C1CC2C=CCN2C=C1NC(=O)c1ccccc1 (stereo not given) — outcome?
-- reply inactive

-- ask Assay result, entry Cc1c2cnccc2c(C)c2c1c1cc(C(=O)O)ccc1n2C — outcome?
-- reply active

-- ask Assay result, entry O=C(OCc1ccc2c(Br)cc(Br)c(O)c2n1)N1CCN(C(=O)c2cc3ccccc3[nH]2)CC1 — outcome?
-- reply inactive

Numbers sourced from PubChem BioAssay (NCI).
